# Measured target: SARS-CoV-2 RBD (SARS-CoV-2)
# Procedure summary: sVNT, cPass kit with SARS-CoV-2 RBD-HRP; HEK293 supernatant
Experimental readout: sVNT SARS-CoV-2 (% I) (%)
Just the number please, in %, no unit attached.

Binder: Antibody 9 (SS6V9-D11) (antibody, V domains shown) VH: QVQLQESGPGLVKPSGTLSLTCAVSGGSISSNIWWSWVRQPPGKGLEWIGDIYHSGSTNYNPSLEGRVTISIDKSKNQFSLRLTSLTAADTAVYYCARAISQQYFDSSVLGYWGQGILVTVSS VL: EIVMTQSPATLSVSPGERVTLSCRASQSVVTNLAWYQQKPGQAPRLLIYGASTRATGIPARFSGSGSGTEFTLTISSLQSEDFAIYHCQQYNNWPGYTFGQGTKVDIK
Experimental readout: sVNT SARS-CoV-2 (% I)
Data value: 39.2

Binder: Antibody 19 (SS6V19-F4) (antibody, V domains shown) VH: EVQLVQSGSELKKPGASVKVSCKVSGYTFTDYNMNWVRQAPGQGLEWMGWINTNTGIPTYAQGFTGRFVFSLDTSVSTAYLQISSLKAEDTAIYYCARDGGWQLPYWYFDLWGRGTLVTVSS VL: EIVMTQSPATLSVSPGERVTLSCRASYSFSSSLAWYQQKPGQAPRLLIYGTSTRATGVPVRFSGSGSGTEFTLTISSLQSEDLAVYYCQQYYSWPLTFGQGTKVDIK
Experimental readout: sVNT SARS-CoV-2 (% I)
Data value: 38.8

// next entry
# get_value(readout='sVNT SARS-CoV-2 (% I)', item= Antibody 5 (SS6V5-C3) (antibody, V domains shown) VH: EVQLVQSGAEVRKPGESLKISCKTSGYTFTHYWIGWVRQLPGKGLEWMGIIYPDDSDTKYSPSFQGQITISADKSISTAYLQWNSLKASDTAMYFCATADIVVGSNFFDHWGQGTLVTVSS VL: DIQMTQSPSTLSASVGDRVTITCRASQSISTWLAWYQQKPGKPPKVLIYKASILESGVSSRFSGSGSGTEFTLTISSLQPDDFATYYCQHYNSYIKTFGQGTKVEIK )
32.3
